B1: tRNA (parent)
chain: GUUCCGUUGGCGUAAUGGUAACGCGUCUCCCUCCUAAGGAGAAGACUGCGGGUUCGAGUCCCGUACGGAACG

# Variants of: B1
# test_name: yeast fitness relative to wild type (ratio to wild type); higher = fitter; tRNA-Arg(CCU), competitive growth, 37 C, YPD
Fewer inactive variants are shown than the library holds.
Decision: yeast fitness >= 0.6 yields True, all other cases yield False.

>>> df
   mutation_label  assigned_category
0       A45U U53C               True

# next variant below
Item G6C G12A C33U A65G A70G with yeast fitness of 0.6 or above?
False
